B1: EEHEE_rd4_0647 (parent)
chain: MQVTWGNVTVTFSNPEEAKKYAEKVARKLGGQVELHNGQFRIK

Variants of: B1
Assay: folding stability dG (cDNA display proteolysis); higher = more stable
Details: PBS, room temperature
# if value of folding stability dG reaches 1 kcal/mol, tag y; if it stays below, tag n

mutant	group
F40N	n
N37P	y
L35I	y
I42L	y

Confirm if folding stability dG reported for the variant V10R is 1 kcal/mol or above. y

Another variant: N37Y y
